tested on: SR leukemia; assay: NCI tumour cell line growth inhibition, 48 h
Attribute: GI50

Sample answers from the record:
compound	GI50
Cc1nc(N)sc1-c1ccnc(Nc2ccc(N3CCOCC3)cc2)n1	0.346 µM
O=S(=O)([O-])c1ccc2c(c1)-c1nc-2nc2[n-]c(nc3nc(nc4[n-]c(n1)c1ccc(S(=O)(=O)[O-])cc41)-c1cc(S(=O)(=O)[O-])ccc1-3)c1ccc(S(=O)(=O)[O-])cc21.[Cu+2].[Na+]	11.2 µM
O=C(c1ccccc1)c1cc(Cl)ccc1OCCCCN1CCN(CCCCOc2ccc(Cl)cc2C(=O)c2ccccc2)CC1	1.83 µM
NC(=NCCCOc1ccc(Cl)cc1)Nc1ccc(C(F)(F)F)cc1	1.77 µM
CC/C(=C(/c1ccc(OCCN(C)C)cc1)c1ccc(OC(=O)CCCCC(=O)c2c(C)[nH]c(/C=C3\N=C(c4ccc[nH]4)C=C3OC)c2C)cc1)c1ccccc1	3.05 µM

The compound listed as COc1ccc2c(c1)CCC1C2CC[C@@]2(C)C1CC1=CC(COC(C)=O)C3C(=O)c4ccccc4C(=O)C3C12 (stereo partly specified) shows GI50 equal to > 100 µM

The recorded GI50 for entry CNCCCn1cc(C2=C(c3cn(C)c4ccccc34)C(=O)NC2=O)c2ccccc21 equals 3.94 µM

Memo: COc1ccc2c(c1)C(C)Cc1c(Cl)ncnc1N2C (stereo unspecified) , reported GI50: 0.45 µM

* * *

test system: SNB-75 CNS; test: NCI tumour cell line growth inhibition, 48 h
recorded.endpoint: TGI

Solved cases below.
compound	TGI
CC(=O)NC1C(OCc2ccccc2)OC(CO)C(O)C1OC(C)C(=O)NC(C)C(=O)NC(CCC(=O)NCCCNc1c2ccccc2nc2cccc([N+](=O)[O-])c12)C(N)=O (centres undefined)	9.92 µM
COc1cc(C(=O)c2cc(C)c3[nH]c4ccc(Cl)cc4c3c2C)cc(OC)c1OC	3.96 µM
Cc1ccc(S(=O)(=O)Oc2cc(-c3ccccc3)nc3ccccc23)cc1	6.93 µM
O=C(c1ccccc1)c1cc(Cl)ccc1OCCCCN1CCN(CCCCOc2ccc(Cl)cc2C(=O)c2ccccc2)CC1	24.9 µM
COC(=O)c1cc2c3ccccc3n(C(C)=O)c2cn1	> 100 µM

Lab book: TGI of CCOc1nc(-c2ccccc2)cc2c(O)c(-c3nnco3)[nH]c(=O)c12 noted as 8.99 µM

In plain terms, COC(=O)C1=C(c2ccc3c(c2)OCO3)O[C@H](c2cc(OC)c(OC)c(OC)c2)[C@H]1COC(C)=O has a documented TGI of > 100 µM

Entry COc1cc(-c2cc(=O)c3c(OC)c(OC)c(OC)c(OC)c3o2)c(OC)c(OC)c1OC , TGI reported as > 100 µM

Lab note: COc1cc(/C=C2\CCC(C)C3C2=NN(C(C)=O)C3c2cc(OC)c(OC)c(OC)c2)cc(OC)c1OC (centres undefined) gave TGI of > 54.6 µM

Measured TGI, COc1ccc(C2S/C(=C\c3ccccc3O)C(=O)N2NC(=O)Cc2ccccc2)cc1 (centres undefined) : > 100 µM

Entry O=C(O/N=C1/CCCC/C1=C\c1ccccc1)c1ccccc1 ; TGI = > 100 µM

Lab book: TGI of Cc1ccc(SC(C)/C=C/NNC2=NC(c3ccccc3)C(c3ccccc3)=NN2)cc1 (centres undefined) noted as > 100 µM

Reported TGI for CCCCN(CCCC)CC(C(=O)Nc1ccc([N+](=O)[O-])cc1[N+](=O)[O-])/C(C)=N\NC(=S)NN (centres undefined) was > 100 µM

Item: C=CC1CC12C(=O)C1OC2(C)C2C(=O)c3cc4ccccc4cc3C(=O)C12 (centres undefined) | TGI: > 100 µM

Input COC(=O)C(C(=O)C(=O)Nc1cccc(OC)c1)c1cnc2ccccc2n1 (centres undefined) . Output TGI: > 100 µM
